molecular target: Cytochrome P450 3A4 (Homo sapiens);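 note: CYP3A4 tested as one member of a cytochrome P450 panel screen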
Sequence (P08684 whole entry): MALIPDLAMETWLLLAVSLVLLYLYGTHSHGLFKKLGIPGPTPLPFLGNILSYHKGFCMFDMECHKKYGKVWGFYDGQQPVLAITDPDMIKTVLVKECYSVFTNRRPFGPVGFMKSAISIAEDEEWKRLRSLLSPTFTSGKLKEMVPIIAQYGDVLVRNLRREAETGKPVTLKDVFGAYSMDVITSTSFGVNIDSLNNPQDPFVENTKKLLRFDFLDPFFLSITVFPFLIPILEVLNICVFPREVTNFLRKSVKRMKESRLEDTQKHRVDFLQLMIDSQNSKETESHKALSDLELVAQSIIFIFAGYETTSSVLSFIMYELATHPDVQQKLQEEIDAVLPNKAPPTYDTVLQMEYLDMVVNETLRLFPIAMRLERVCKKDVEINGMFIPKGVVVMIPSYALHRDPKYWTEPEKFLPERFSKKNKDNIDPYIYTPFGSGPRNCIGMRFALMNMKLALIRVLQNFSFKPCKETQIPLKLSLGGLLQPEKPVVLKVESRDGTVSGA
OBSERVATION_TYPE: AC50

Worked cases, answers included:
# COMPOUND, RESULT
records = [
    ("O=C1CN(C(=O)c2ccc(Br)o2)C(c2ccc(F)cc2)c2cc(Cl)ccc2N1 (stereo unspecified)", "inconclusive"),
    ("COc1ccc(C(=O)N2CCC3(CC2)CCN(c2ncccn2)CC3)cc1", "inconclusive"),
    ("Cc1ccc(/C=N/NC(=O)c2cccs2)cc1[N+](=O)[O-]", "inconclusive"),
    ("COC(=O)[C@](C)(N)Cc1ccc(O)cc1", "inconclusive"),
    ("COC(=O)c1ccc(NC(=O)N2CCC(O)(c3cccnc3)CC2)cc1", "inconclusive"),
]

Turning now to a further compound:
# query: AC50 of entry O=C([O-])Cc1ccccc1Nc1c(Cl)cccc1Cl.[Na+] [DICLOFENAC SODIUM]
inconclusive
